# System: MILI (PIWIL2) piRISC loaded with L1MC piRNA (26 nt);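 also: 1 nM active piRISC with 0.1 nM target library at 33 °C single turnover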
# testDescription: pre-steady-state target cleavage rate (min^-1); guide: L1MC piRNA 5'p-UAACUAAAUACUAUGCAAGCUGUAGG; higher = faster piRNA-guided slicing of the target
# condition: auxiliary factor: none (no GTSF1)
Classes are defined on pre-steady-state target cleavage rate with ranges group A: < 0.005; group B: ≥ 0.005 and < 0.008; group C: ≥ 0.008

Task: The entry to classify is `UCCUGGAUGUCGAACGUAUGUAUAAAGUUA` ; which class holds it?
Result: group A

---

# Tested on: MILI (PIWIL2) piRISC loaded with piRNA #1 (26 nt);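 also: 1 nM active piRISC with 0.1 nM target library at 33 °C single turnover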
# testDescription: pre-steady-state target cleavage rate (min^-1); guide: piRNA #1 5'p-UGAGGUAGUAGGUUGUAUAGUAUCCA; higher = faster piRNA-guided slicing of the target
# condition: auxiliary factor: 500 nM mouse GTSF1
Given measured pre-steady-state target cleavage rate, output 1.0 if it is greater than or equal to 0.1 and 0.0 if not.

constructSequence | answerLabel
GGAGACCAUACUAUACUACCUACUUCCUCA | 0.0

Task: hey, is pre-steady-state target cleavage rate for this one >= 0.1? `GGAGACCUUACUUUACAUCCUACUACCUCA`
Result: 1.0

Task: Does the reported pre-steady-state target cleavage rate for `GGAGUGGAUGCUAUACAACCUACUACCUCA` fall at or above the 0.1 mark?
Result: 1.0

Task: Determine whether measured pre-steady-state target cleavage rate meets or exceeds 0.1 for `GGAGACCUAUGUAUACAACCUACUACCUAA`
Result: 0.0

Task: Please check the record `GGAGACGAUACUAAUCAACCUACUACCUCA` and state if its pre-steady-state target cleavage rate is at or above 0.1.
Result: 1.0

Task: Item `GGAGACCUAUCUUUACAACCUACUACCUGA` with pre-steady-state target cleavage rate of 0.1 or above?
Result: 0.0

Task: Evaluate `GGAGACCUAUGAUAUGAACCUACAACGUCA` : pre-steady-state target cleavage rate at minimum 0.1?
Result: 0.0

Task: Check the entry `GGAGACCAUACUAAUCAACCUACUACCUCA` : does pre-steady-state target cleavage rate equal or exceed 0.1?
Result: 1.0

Task: Say whether `GGAGACGUACUAUACAACCUACUACCUCA` shows pre-steady-state target cleavage rate of 0.1 or more.
Result: 1.0

Task: Tell me whether pre-steady-state target cleavage rate is at least 0.1 here: `GGAGACCUAUCUAUAGAACGUACUACCUCA`
Result: 0.0

Task: Is pre-steady-state target cleavage rate at least 0.1? Consider `GGAGACCAUACUAUACAACCUACUACCGUCA`
Result: 1.0

Task: Threshold query (pre-steady-state target cleavage rate >= 0.1) on `GGAGAGGAUACAAUACAACCUACUACCACA`
Result: 1.0

Task: Dear colleague, could you confirm whether `GGAGAGGAUAGUAUACUACCUACUACCUCA` has pre-steady-state target cleavage rate at or above 0.1?
Result: 0.0

Task: I'd appreciate it if you could say whether `GGAGACGAUACUAUACAACCCACUACCUCA` has pre-steady-state target cleavage rate at least equal to 0.1.
Result: 0.0

Task: # check: pre-steady-state target cleavage rate of `GGAGACCUAUCUAUACAAACUACUACCUCA` is greater than or equal to 0.1
Result: 1.0

Task: Does the sequence `GGAGUGGAUACUAACAACCUACUACCUCA` have recorded pre-steady-state target cleavage rate that is 0.1 or more?
Result: 1.0

Task: Please check the record `GGAGACCUAUCUAUUCUACCUACUACCUCA` and state if its pre-steady-state target cleavage rate is at or above 0.1.
Result: 0.0

Task: Answer whether pre-steady-state target cleavage rate of `GGAGACCUAUGUAUACAACCUACUACACUCA` is greater than or equal to 0.1.
Result: 1.0

---

# Test system: EfPiwi piRISC loaded with piRNA #1 (26 nt)
# testDescription: pre-steady-state target cleavage rate (min^-1); auxiliary factor: 500 nM Ephydatia muelleri Gtsf1; guide: piRNA #1 5'p-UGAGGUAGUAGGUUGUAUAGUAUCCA; higher = faster piRNA-guided slicing of the target
propertyLabel: pre-steady-state target cleavage rate
One number for each entry.

Known results for sequences:
constructSequence | pre-steady-state target cleavage rate
GGAGACCUAACUAUACAACCUACUACCUUA | 0.0211
GGAGAGGAAACUAUACAACCUACUUCCUCA | 0.00302
GGAGUGGAUACUAUACAAGCUACAACCUCA | 0.00371
GGAGACCUUACUAUACAACCCACUACCUCA | 0.00926
GGAGACGAUACUAUACAACCAACUACCUGA | 0.00427

Please go through the list and note pre-steady-state target cleavage rate for each sequence.
1. GGAGUGGAUACUAUACAUACCUACUACCUCA
2. GGAGUGGAGUACUAUACAACCUACUACCUCA
3. GGAGUCGAUACUAUUCAACCUACUACCUCA
4. GGAGACGAUACUAUACAACCUUGUACCUCA
5. GGAGACCAUACUAUACAACGCUACUACCUCA
6. GGAGACCAUACUAUACAACGUACUACCUCA
7. GGAGAGGAUACUAUACAACCUACUACCGUCA

Result:
0.0107
0.0116
0.00506
0.00308
0.0082
0.00482
0.00833

---

# System: MILI (PIWIL2) piRISC loaded with L1MC piRNA (26 nt);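 also: 1 nM active piRISC with 0.1 nM target library at 33 °C single turnover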
# testDescription: pre-steady-state target cleavage rate (min^-1); guide: L1MC piRNA 5'p-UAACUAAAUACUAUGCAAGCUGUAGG; higher = faster piRNA-guided slicing of the target
# condition: auxiliary factor: 500 nM mouse GTSF1
Use satisfied when the recorded pre-steady-state target cleavage rate is no lower than 0.09; use not satisfied when it is lower.

constructSequence | answerLabel
UCCUGGAUGAGCUUGCAUAGUAUAUACAAA | not satisfied
UCCUGGAACAGCUUGCAUACUAUUUAGUUA | not satisfied
UCCUGGUAGAGGUUGCAUAGUAUUUAGUUA | satisfied
UCCUCCUACAGGUAGCAUAGUAUUUAGUUA | satisfied
UCCUGCUACAGCUUGCAUCAGUAUUUAGUUA | not satisfied

Turning to the following sequence.
Task: Item `UCCUGCUACAGCUUGCAGAGUAUUUAGUUA` with pre-steady-state target cleavage rate of 0.09 or above?
Result: satisfied

---

# Test system: EfPiwi piRISC loaded with piRNA #1 (26 nt)
# testDescription: pre-steady-state target cleavage rate (min^-1); auxiliary factor: 500 nM Ephydatia muelleri Gtsf1; guide: piRNA #1 5'p-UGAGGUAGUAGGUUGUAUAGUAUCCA; MIWI and MILI are mouse PIWI proteins and EfPiwi is from a freshwater sponge; tags in brackets are library labels; higher = faster piRNA-guided slicing of the target
propertyLabel: pre-steady-state target cleavage rate

constructSequence | pre-steady-state target cleavage rate
GGAGAGGAUACUAUACUACCUACUACCUCA | 0.00925
GGAGACCUAUGUAUUCAACCUACUACCACA | < 0.0001
GGAGUGGAUACUAUUCAACCUACAACCUCA | 0.00255
GGAGUGGAUACUAUACAACCAUCUACCUCA | 0.00525
GGAGACGAUACUAUACAACCAUCUACCUCA | 0.00359

I'm hoping you can list pre-steady-state target cleavage rate for every sequence here, please.
1. GGAGUGGAUACUAUAGAACCUACUACCUGA
2. GGAGUGGAUACUAUACAACCUAGUACCACA
3. GGAGAGGAUACUAUACAACCUACCUACCUCA
4. GGAGACGAUACUAUACAACCUUCUUCCUCA
5. GGAGUGGAUACUAUACAACCUACUACGACA
6. GGAGAGCAUACUAUACAACCUACAACCUCA

Result:
[0.00222, 0.0035, 0.00412, 0.0037, 0.00539, 0.0026]

I would be grateful if you could provide pre-steady-state target cleavage rate for each of the following entries.
1. GGAGUCGAUACUAUACAUCCUACUACCUCA
2. GGAGAGGAUACAAAACAACCUACUACCUCA
3. GGAGACGAAACUAUACAACCUACUAGCUCA
4. GGAGAGGAUACUAUACAUCCUACUACGUCA
5. GGAGACCAUACUAUACAACCAACUUCCUCA
6. GGAGAGGAUACUAUACAACGUACAACCUCA
7. GGAGACCAUACUAUACAACCUACUACCUUA

Result:
0.0165
0.00656
0.00368
0.00405
0.00509
0.00357
0.0127

Look up pre-steady-state target cleavage rate for the entries below, preserving their order.
1. GGAGACCUUACUAUACAACCUAGUACCUGA
2. GGAGACGAUACUAUAUCAACCUACUACCUCA

Result:
1: 0.00509; 2: 0.0198
